Attribution: the supplement of paper PMC12636033

System: WT Max(13-93) synthetic (M65Nle)
Assay overview: PBM 8-mer E-score (E-score (rank enrichment, -0.5 to 0.5)); higher = stronger preferential binding
In all, about 33,000 sequences were measured (“E-score (rank enrichment, -0.5 to 0.5)”: median about -0.0075, highest 2% from about 0.23 on). The list comes from a sample in which the highest values are over-represented; it also holds close analogues and randomly drawn sequences.
Measured metric: PBM 8-mer E-score
Give bare numbers.

Answered examples (7):
ATAACGTG
0.261
ATAACGTA
0.203
ATCGACAA
-0.0231
AATATGAC
0.201
AATATGTA
0.138
AATATATT
0.197
ACAACGTG
0.255

Here's the next entry for you.
Query: For WT Max(13-93) synthetic (M65Nle), give the measured PBM 8-mer E-score of the entry GTGGAGTA
Response: -0.0124

* * *

Tested on: WT Max(13-93) synthetic (M65Nle)
Assay overview: PBM 8-mer E-score (E-score (rank enrichment, -0.5 to 0.5)); higher = stronger preferential binding
Over roughly 33,000 sequences, “E-score (rank enrichment, -0.5 to 0.5)” has its median near -0.0075; the highest 2% begin near 0.23. The entries come from a sample that favours the highest values as a whole.
So I've got a bunch of sequences here, and I need their PBM 8-mer E-score values.
One number for each entry.

Each of the following entries comes with a recorded value; kindly state PBM 8-mer E-score for each.
1. ACCACGCA
2. CGATCGAG
3. ACATATAG
4. CCCACGCA
5. ACAGCAGA
6. CCCACGCG
7. ACAATGCC
8. TGTTTAAA

Response:
1: 0.104; 2: -0.26; 3: 0.0953; 4: -0.00155; 5: -0.0839; 6: 0.31; 7: 0.0109; 8: 0.252

Query: Name the recorded PBM 8-mer E-score of the sequence listed here: TGTTTCAA
Response: 0.241

* * *

Hi there, I'd appreciate the recorded PBM 8-mer E-score for every entry that follows.
Test system: WT Max(13-93) synthetic (M65Nle)
Assay overview: PBM 8-mer E-score (E-score (rank enrichment, -0.5 to 0.5)); higher = stronger preferential binding
In all, about 33,000 sequences were measured (“E-score (rank enrichment, -0.5 to 0.5)”: median about -0.0075, highest 2% from about 0.23 on). For the sample, the highest values were picked, then their nearest neighbours and some sequences at random.
Answers are plain numbers.

Guide cases for PBM 8-mer E-score, answers given:
AATCACGA
0.0321
ATATATAT
0.0942
CCAGCCGA
-0.272
TCAGTACA
-0.0447
GGACGTGA
-0.0819
CCACGAGC
-0.0509
CAACTGCA
-9e-05
AATTTATA
0.301

Quick batch: PBM 8-mer E-score for everything below.
1. AATCACGC
2. ATCGTGTA
3. CCGCGTAG
4. CGCGTGTA
5. CCGCTTCG
6. GCACGTGA

Response:
0.188
0.0318
-0.0165
0.29
-0.0665
0.439

Give PBM 8-mer E-score for each of the items listed below.
1. ATCCACAG
2. AAAATTTG
3. ATAGCTAA

Response:
1. 0.0193
2. 0.027
3. -0.104

* * *

Tested on: WT Max(13-93) synthetic (M65Nle)
Assay overview: PBM 8-mer E-score (E-score (rank enrichment, -0.5 to 0.5)); higher = stronger preferential binding
Over roughly 33,000 sequences, “E-score (rank enrichment, -0.5 to 0.5)” has its median near -0.0075; the highest 2% begin near 0.23. The sample as a whole holds a higher share of the highest values than the screen did.
Measured metric: PBM 8-mer E-score
One number for each entry.

TGATCGAA
0.0153
AACGTGGG
0.215
CCCTGGCG
-0.198
ACCAGGGA
0.0354
CTAGGTCC
-0.172

State recorded PBM 8-mer E-score for all listed sequences.
1. CTAAGTTA
2. GTTTCCGA
3. GACTTCTA
4. ATTGCGTA
5. CTTGCCCC
6. CGGAAAGC

Response:
-0.011
0.0231
-0.0184
0.188
-0.0869
-0.0958

* * *

Test system: WT Max(13-93) synthetic (M65Nle)
Assay overview: PBM 8-mer E-score (E-score (rank enrichment, -0.5 to 0.5)); higher = stronger preferential binding
Whole data set: some 33,000 sequences, median “E-score (rank enrichment, -0.5 to 0.5)” near -0.0075, cut for the highest 2% near 0.23. Only a selection was taken, and the highest values are over-represented in it overall.
Hi there, I'd appreciate the recorded PBM 8-mer E-score for every entry that follows.
Answers are plain numbers.

Previously resolved entries follow.
TCAACTCA
-0.088
ACCCCGTG
0.0605

Go through the items and report each one's PBM 8-mer E-score.
1. ATGCAGGG
2. ATTGTGCC
3. AATGCAAT
4. ATGTGTAA

Response:
1. 0.0122
2. 0.174
3. 0.237
4. 0.236

Look up PBM 8-mer E-score for the entries below, preserving their order.
1. ATATTCAT
2. ACACATGT
3. AACCCGCT
4. GAAGTTCC
5. CCCATTAA
6. ACCATTAA

Response:
0.218
0.359
0.00053
-0.122
0.0514
0.284

For each listed entry, give its PBM 8-mer E-score.
1. ACACATCT
2. CACTACAG
3. CCGTTATA
4. ATGTAATA
5. CACGCGCA
6. ATAATTAA
7. GAATACGC

Response:
1. 0.0507
2. -0.123
3. 0.132
4. 0.25
5. 0.149
6. 0.22
7. 0.0909

* * *

System: WT Max(13-93) synthetic (M65Nle)
Assay overview: PBM 8-mer E-score (E-score (rank enrichment, -0.5 to 0.5)); higher = stronger preferential binding
Over roughly 33,000 sequences, “E-score (rank enrichment, -0.5 to 0.5)” has its median near -0.0075; the highest 2% begin near 0.23. This excerpt belongs to a sample that is enriched for the highest values.
Definition: the class of an entry is the range in LOW (below 0.004), MEDIUM (0.004 to below 0.1), HIGH (0.1 or more) that contains its PBM 8-mer E-score.

AAGTATAA
HIGH

Query: Classify this sequence: CAAACATA
Response: HIGH

Query: // bin(item) where item = CGCATTAA
Response: LOW

Query: Pick a category. Item: CAGACATC
Response: LOW

Query: Where would AAAACATA land among the classes by reported PBM 8-mer E-score?
Response: MEDIUM

Query: Which bin should I file TCCATTAA under?
Response: MEDIUM

Query: Entry AATGCATT belongs to which category?
Response: HIGH

Query: Pick a category. Item: AAGTATAT
Response: MEDIUM

Query: Lab note: which band did CCGACCGC land in?
Response: LOW

Query: Class? Entry: CCGTGGTC
Response: LOW

* * *

System: WT Max(13-93) synthetic (M65Nle)
Assay overview: PBM 8-mer E-score (E-score (rank enrichment, -0.5 to 0.5)); higher = stronger preferential binding
In all, about 33,000 sequences were measured (“E-score (rank enrichment, -0.5 to 0.5)”: median about -0.0075, highest 2% from about 0.23 on). Only a selection was taken, and the highest values are over-represented in it overall.
Label Satisfied when PBM 8-mer E-score is at or above 0.03; otherwise label Not satisfied.

Check out these entries, answers already filled in.
GGACTGCC
Not satisfied
CATGCTAG
Satisfied
GGCTGGAA
Not satisfied
AAGGTCGG
Not satisfied
ACCGAAGC
Not satisfied
GTTTCCAA
Satisfied
TGCGTTAA
Not satisfied
GCAATCAC
Satisfied

Query: Record GCCTACAC ; criterion: PBM 8-mer E-score no lower than 0.03. Met?
Response: Not satisfied

Query: # check: PBM 8-mer E-score of ACAATCAC is greater than or equal to 0.03
Response: Satisfied

Query: Quick check, PBM 8-mer E-score >= 0.03? CCAAGGCG
Response: Not satisfied

Query: Does AATTAAAT have a reported PBM 8-mer E-score of at least 0.03?
Response: Satisfied

* * *

Provide the recorded PBM 8-mer E-score for the entries that follow.
System: WT Max(13-93) synthetic (M65Nle)
Assay overview: PBM 8-mer E-score (E-score (rank enrichment, -0.5 to 0.5)); higher = stronger preferential binding
The full ranking holds about 33,000 sequences; the median of “E-score (rank enrichment, -0.5 to 0.5)” is about -0.0075, and the highest 2% start at about 0.23. The full list was thinned out, with the highest values kept by preference.

Consider the following illustrative entries.
TATACACA
0.0996
AGTATACA
0.155
CTTTCCTA
0.0286

Please go through the list and note PBM 8-mer E-score for each sequence.
1. TGTATACA
2. CATACATG
3. CATACACA
4. GGTATACA
5. GTAGTGAC
6. CGTATACC

Response:
1. 0.307
2. 0.245
3. 0.228
4. 0.0958
5. -0.0549
6. -0.109

Hi, could you look up PBM 8-mer E-score for each item in my list?
1. CATACATC
2. CATACATA
3. CAGGGTCA

Response:
[0.135, 0.17, -0.0768]
